System: IGROV1 ovarian
Assay: NCI tumour cell line growth inhibition, 48 h
Recorded TGI for the following compounds

Q: Using the record for O=C(NC(CO)CO)c1ccc2cc(C(=O)N3CC(CCl)c4ccc([N+](=O)[O-])cc43)[nH]c2c1 (stereo unspecified) , state its measured TGI.
A: > 100 µM

Q: Quote TGI reported for "COc1ccc(-c2c(C#N)c(N)nc3c2CCCc2ccc(F)cc2-3)cc1OC" please.
A: > 100 µM

Q: Return value of TGI for input "C=C1C(=O)O[C@H]2[C@H]1CC/C(COC(=O)C(=O)c1cn(C)c3ccc(OC)cc13)=C\CC[C@@]1(C)O[C@@H]21" , no commentary.
A: 6.01 µM

Q: Give reported TGI value for "CN1CCN(c2c(O)c3c(c(O)c2Cl)C(=O)C=CC3=O)CC1"
A: 2.6 µM

Q: Tell me TGI reported for "Cc1cnc2[nH]c(-c3cccc(Cl)c3)cc(=O)c2c1"
A: > 100 µM

Q: Look up TGI of "CCCN(CCC)c1c([N+](=O)[O-])cc(C(=O)N(C)C)cc1[N+](=O)[O-]" and report it.
A: > 100 µM

Q: Recall and state the measured TGI for "O=C(CC(=O)c1ccccc1NC1=Cc2ccccc2C(=O)C1=O)C(=O)NC1=C(Cl)C(=O)c2ccccc2C1=O" .
A: 17.6 µM

Q: Find the measured TGI of "O=C(/C=C/c1ccc(Cl)cc1)c1ccncc1" and report it.
A: > 100 µM

Q: Look up and report measured TGI for this entry: "Clc1ccc(-c2cn(-c3ccccc3)c(-c3ccccc3)n2)c(Cl)c1"
A: > 44.8 µM

Q: Answer with reported TGI of "C=CCc1cccc2cc(C(=O)Nc3nc(C45CC6CC(CC(C6)C4)C5)cs3)c(=O)oc12"
A: 94.5 µM

Q: Output TGI of "O=c1c(S(=O)(=O)Oc2ccccc2)coc2cc(F)ccc12"
A: > 100 µM

Q: Recall and state the measured TGI for "CC1=N/C(=C\c2cccc3ccccc23)C(=O)O1" .
A: > 100 µM

Q: Assign TGI to the following record: "CCOC(=O)c1cnc2c(cnn2CC)c1NN=C(C)C"
A: > 100 µM

Q: Return the recorded TGI value; entry: "c1ccc(-c2nc3ccccc3n3nnnc23)cc1"
A: > 100 µM

Q: Complete the entry with TGI for CN1N(c2ccccc2)C(=O)C2=NC=C(C#N)C(=N)C21C (stereo unspecified)
A: > 100 µM

Q: Return TGI (reported value) for this compound: "C/C(=N\NC(=O)N/N=C(\C)c1ccccn1)c1ccccn1"
A: > 100 µM

Q: Indicate the recorded TGI value for this compound: "Cn1cnc([N+](=O)[O-])c1Sc1nnc(C(F)(F)F)n1C"
A: > 100 µM

Q: # return recorded TGI for entry COC1=CCC2=C(CCN(C(=O)C3CCC3)C2Cc2ccc(OC)c(O)c2)C1 (stereo unspecified)
A: > 100 µM

Cited source: PubChem BioAssay (NCI)
